# measured-target: MDM2 (Homo sapiens, UniProt Q00987)
# Sequence (Q00987 1-125): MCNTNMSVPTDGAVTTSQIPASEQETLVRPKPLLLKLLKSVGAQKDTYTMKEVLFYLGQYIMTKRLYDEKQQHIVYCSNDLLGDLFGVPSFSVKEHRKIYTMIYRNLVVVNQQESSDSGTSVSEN
# assay-protocol: Competitive fluorescence polarization assay for MDM2
# Format: binding
# reported-conditions: competitive FP assay, MDM2; read-out: IC50 (MDM2)
pIC50: −log10 of the molar value. Where a SMILES comes first, the peptide text is derived from it. Bridges are numbered along the chain shown (N, C = ends). [ ]: non-standard residue; d: D form. R8 = C=CCCCCCC[C@@](C)(N)C(=O)O; hLeu = CC(C)CC[C@H](N)C(=O)O; S5 = C=CCCC[C@](C)(N)C(=O)O; Ac3c = NC1(C(=O)O)CC1
Items are presented alongside their recorded pIC50.

molecule	measured-target	pIC50
CC(=O)N[C@@H](CC(C)C)C(=O)N[C@H](C(=O)N[C@@H](Cc1ccccc1)C(=O)N[C@]1(C)CCCCCCC=CCCC[C@@](C)(C(=O)N[C@@H](C)C(=O)N[C@@H](Cc2c[nH]cn2)C(=O)N[C@@H](Cc2ccccc2)C(=O)N[C@@H](C)C(N)=O)NC(=O)[C@H](CC(C)C)NC(=O)[C@H](C)NC(=O)[C@H](C)NC(=O)[C@H](Cc2c[nH]c3ccccc23)NC(=O)[C@H](Cc2ccc(O)cc2)NC(=O)[C@H](C)NC1=O)[C@@H](C)O [compound 204] (Ac-LTF[R8]AYWAAL[S5]AHFA-NH2; staple 4-11)	MDM2 (Homo sapiens, UniProt Q00987)	7.00 to 8.00
CC(=O)N[C@@H](CCC(=O)O)C(=O)N[C@H](C(=O)N[C@@H](Cc1ccccc1)C(=O)N[C@]1(C)CCCCCCC=CCCC[C@@](C)(C(=O)N[C@@H](CO)C(=O)N[C@@H](CO)C(=O)N[C@H](C)C(N)=O)NC(=O)[C@H](CC(C)C)NC(=O)[C@H](CCC(N)=O)NC(=O)[C@H](C)NC(=O)[C@H](Cc2c[nH]c3ccccc23)NC(=O)[C@H](Cc2ccc(O)cc2)NC(=O)[C@H](C(C)C)NC1=O)[C@@H](C)O [compound 134] (Ac-ETF[R8]VYWAQL[S5]SS[dA]-NH2; staple 4-11)	MDM2 (Homo sapiens, UniProt Q00987)	> 8.00
CC(=O)N[C@@H](Cc1ccccc1)C(=O)N[C@]1(C)CCCCCCC=CCCC[C@@](C)(C(=O)N[C@@H](C)C(=O)N[C@@H](C)C(=O)N[C@@H](CC(C)C)C(N)=O)NC(=O)[C@H](CC(C)C)NC(=O)C2(CC2)NC(=O)[C@H](CCC(=O)O)NC(=O)[C@H](Cc2c[nH]c3ccccc23)NC(=O)[C@H](Cc2ccc(O)cc2)NC(=O)[C@H](C)NC1=O [compound 15] (Ac-F[R8]AYWE[Ac3c]L[S5]AAL-NH2; staple 2-9)	MDM2 (Homo sapiens, UniProt Q00987)	7.00 to 8.00
CC[C@H](C)[C@H](NC(=O)[C@H](C)NC(=O)[C@H](C)NC(=O)[C@]1(C)CCCC=CCCCCCC[C@@](C)(NC(=O)[C@H](Cc2ccccc2)NC(=O)[C@@H](NC(=O)[C@H](CC(C)C)NC(C)=O)[C@@H](C)O)C(=O)N[C@@H](C)C(=O)N[C@@H](Cc2ccc(O)cc2)C(=O)N[C@@H](Cc2c[nH]c3ccccc23)C(=O)N[C@@H](C)C(=O)N[C@@H](C)C(=O)N[C@@H](CC(C)C)C(=O)N1)C(=O)N[C@H](C)C(N)=O (single isomer, unassigned) [compound 203]	MDM2 (Homo sapiens, UniProt Q00987)	7.00 to 8.00
CC(=O)N[C@@H](CC(C)C)C(=O)N[C@H](C(=O)N[C@@H](Cc1ccccc1)C(=O)N[C@]1(C)CCCCCC/C=C/CCC[C@@](C)(C(=O)N[C@@H](CO)C(=O)N[C@@H](C)C(=O)N[C@@H](C)C(N)=O)NC(=O)[C@H](CCC(C)C)NC(=O)[C@H](CCC(N)=O)NC(=O)[C@H](C)NC(=O)[C@H](Cc2c[nH]c3ccccc23)NC(=O)[C@H](Cc2ccc(O)cc2)NC(=O)[C@H](C)NC1=O)[C@@H](C)O [compound 115] (Ac-LTF[R8]AYWAQ[hLeu][S5]SAA-NH2; staple (E) 4-11)	MDM2 (Homo sapiens, UniProt Q00987)	> 8.00

----------
# measured-target: MDM2 (Homo sapiens, UniProt Q00987)
# assay-protocol: Competitive fluorescence polarization assay for MDM2
# Format: binding
# reported-conditions: competitive FP assay, MDM2; read-out: Ki (MDM2)
Where a SMILES comes first, the peptide text is derived from it. Bridges are numbered along the chain shown (N, C = ends). [ ]: non-standard residue; d: D form. R8 = C=CCCCCCC[C@@](C)(N)C(=O)O; Cba = N[C@@H](CC1CCC1)C(=O)O; S5 = C=CCCC[C@](C)(N)C(=O)O; Nle = CCCC[C@H](N)C(=O)O

compound	measured-target	Ki
CCCC[C@H](NC(=O)[C@H](C)NC(=O)[C@H](C)NC(=O)[C@]1(C)CCCC=CCCCCCC[C@@](C)(NC(=O)[C@H](Cc2ccccc2)NC(=O)[C@@H](NC(=O)[C@H](CCC(=O)O)NC(C)=O)[C@@H](C)O)C(=O)N[C@@H](C)C(=O)N[C@@H](Cc2ccc(O)cc2)C(=O)N[C@@H](Cc2c[nH]c3ccccc23)C(=O)N[C@@H](C)C(=O)N[C@@H](CCC(N)=O)C(=O)N[C@@H](CC2CCC2)C(=O)N1)C(=O)N[C@@H](C)C(N)=O [compound 237] (Ac-ETF[R8]AYWAQ[Cba][S5]AA[Nle]A-NH2; staple 4-11)	MDM2 (Homo sapiens, UniProt Q00987)	< 10 nM

----------
# IC50 values compiled below
# measured-target: MDM2 (Homo sapiens)
# assay-protocol: Competitive fluorescence polarization assay for MDM2
# Assay type: binding
# reported-conditions: competitive FP assay, MDM2; read-out: IC50 (MDM2)
Where a SMILES comes first, the peptide text is derived from it. Bridges are numbered along the chain shown (N, C = ends). [ ]: non-standard residue; d: D form. R8 = C=CCCCCCC[C@@](C)(N)C(=O)O; Cba = N[C@@H](CC1CCC1)C(=O)O; S5 = C=CCCC[C@](C)(N)C(=O)O; Nle = CCCC[C@H](N)C(=O)O

compound	IC50
CC(=O)N[C@@H](CC(C)C)C(=O)N[C@H](C(=O)N[C@@H](Cc1ccccc1)C(=O)N[C@]1(C)CCCCCCC=CCCC[C@@](C)(C(=O)N[C@@H](C)C(=O)N[C@@H](C)C(=O)NC(C)(C)C(=O)N[C@@H](C)C(N)=O)NC(=O)[C@H](CC(C)C)NC(=O)[C@H](CCC(N)=O)NC(=O)[C@H](C)NC(=O)[C@H](Cc2c[nH]c3ccccc23)NC(=O)[C@H](Cc2ccc(O)cc2)NC(=O)[C@H](C)NC1=O)[C@@H](C)O (single isomer, unassigned)	< 10 nM
CC(=O)N[C@@H](CC(C)C)C(=O)N[C@H](C(=O)N[C@@H](Cc1ccccc1)C(=O)N[C@]1(C)CCCCCCC=CCCC[C@@](C)(C(=O)N[C@@H](CO)C(=O)N[C@H](C(=O)N[C@@H](CO)C(N)=O)C(C)C)NC(=O)[C@H](CC(C)C)NC(=O)[C@H](CCC(N)=O)NC(=O)[C@H](C)NC(=O)[C@H](Cc2c[nH]c3ccccc23)NC(=O)[C@H](Cc2ccc(O)cc2)NC(=O)[C@H](C)NC1=O)[C@@H](C)O [compound 121] (Ac-LTF[R8]AYWAQL[S5]SVS-NH2; staple 4-11)	< 10 nM
CCCC[C@H](NC(=O)[C@H](C)NC(=O)[C@H](C)NC(=O)[C@]1(C)CCCC=CCCCCCC[C@@](C)(NC(=O)[C@H](Cc2ccccc2)NC(=O)[C@@H](NC(=O)[C@H](CC(C)C)NC(C)=O)[C@@H](C)O)C(=O)N[C@@H](C)C(=O)N[C@@H](Cc2ccc(O)cc2)C(=O)N[C@@H](Cc2c[nH]c3ccccc23)C(=O)N[C@@H](C)C(=O)N[C@@H](CCC(N)=O)C(=O)N[C@@H](CC(C)C)C(=O)N1)C(=O)N[C@@H](C)C(=O)N[C@@H](C)C(N)=O	10 to 100 nM
CC(=O)N[C@@H](CC(C)C)C(=O)N[C@H](C(=O)N[C@@H](Cc1ccccc1)C(=O)N[C@]1(C)CCCCCCC=CCCC[C@@](C)(C(=O)N[C@@H](CO)C(=O)N[C@H](C(=O)NCC(N)=O)C(C)C)NC(=O)[C@H](CC(C)C)NC(=O)[C@H](CCC(N)=O)NC(=O)[C@H](C)NC(=O)[C@H](Cc2c[nH]c3ccccc23)NC(=O)[C@H](Cc2ccc(O)cc2)NC(=O)[C@H](C)NC1=O)[C@@H](C)O [compound 123] (Ac-LTF[R8]AYWAQL[S5]SVG-NH2; staple 4-11)	< 10 nM
CC(=O)N[C@@H](CCC(=O)O)C(=O)N[C@H](C(=O)N[C@@H](Cc1ccccc1)C(=O)N[C@]1(C)CCCCCCC=CCCC[C@@](C)(C(=O)N[C@@H](CO)C(=O)N[C@@H](CC(N)=O)C(=O)N[C@H](C)C(N)=O)NC(=O)[C@H](CC(C)C)NC(=O)[C@H](CCC(N)=O)NC(=O)[C@H](C)NC(=O)[C@H](Cc2c[nH]c3ccccc23)NC(=O)[C@H](Cc2ccc(O)cc2)NC(=O)[C@H](C(C)C)NC1=O)[C@@H](C)O [compound 136] (Ac-ETF[R8]VYWAQL[S5]SN[dA]-NH2; staple 4-11)	< 10 nM
CCCC[C@H](NC(=O)[C@H](Cc1c[nH]c2ccccc12)NC(=O)[C@H](C)NC(=O)[C@]1(C)CCCC=CCCCCCC[C@@](C)(NC(=O)[C@H](Cc2ccccc2)NC(=O)[C@@H](NC(=O)[C@H](CCC(=O)O)NC(C)=O)[C@@H](C)O)C(=O)N[C@@H](CCC(=O)O)C(=O)N[C@@H](Cc2ccc(O)cc2)C(=O)N[C@@H](Cc2c[nH]c3ccccc23)C(=O)N[C@@H](C)C(=O)N[C@@H](CCC(N)=O)C(=O)N[C@@H](CC2CCC2)C(=O)N1)C(=O)N[C@H](C)C(N)=O [compound 272] (Ac-ETF[R8]EYWAQ[Cba][S5]AW[Nle][dA]-NH2; staple 4-11)	< 10 nM
CC(=O)N[C@@H](CC(C)C)C(=O)N[C@H](C(=O)N[C@@H](Cc1ccccc1)C(=O)N[C@]1(C)CCCCCCC=CCCC[C@@](C)(C(=O)N[C@@H](CO)C(=O)N[C@@H](C)C(=O)N[C@@H](Cc2ccccc2)C(=O)N[C@H](C)C(N)=O)NC(=O)[C@H](CC2CCC2)NC(=O)[C@H](CCC(N)=O)NC(=O)[C@H](C)NC(=O)[C@H](Cc2c[nH]c3ccccc23)NC(=O)[C@H](Cc2ccc(O)cc2)NC(=O)[C@H](CCC(=O)O)NC1=O)[C@@H](C)O [compound 257] (Ac-LTF[R8]EYWAQ[Cba][S5]SAF[dA]-NH2; staple 4-11)	10 to 100 nM
CC(=O)N[C@@H](CC(C)C)C(=O)N[C@H](C(=O)N[C@@H](Cc1ccccc1)C(=O)N[C@]1(C)CCCCCCC=CCCC[C@@](C)(C(=O)N[C@@H](CO)C(=O)N[C@@H](Cc2c[nH]c3ccccc23)C(=O)N[C@@H](C)C(N)=O)NC(=O)[C@H](CC(C)C)NC(=O)[C@H](CCC(N)=O)NC(=O)[C@H](C)NC(=O)[C@H](Cc2c[nH]c3ccccc23)NC(=O)[C@H](Cc2ccc(O)cc2)NC(=O)[C@H](C)NC1=O)[C@@H](C)O (single isomer, unassigned)	10 to 100 nM
